B1: Pistol ribozyme (parent)
chain: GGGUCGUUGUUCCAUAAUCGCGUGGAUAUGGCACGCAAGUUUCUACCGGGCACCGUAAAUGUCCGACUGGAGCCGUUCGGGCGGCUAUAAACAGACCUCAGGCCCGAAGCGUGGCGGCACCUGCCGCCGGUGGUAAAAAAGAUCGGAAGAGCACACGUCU

Variants of: B1
PROTOCOL: aptazyme ON/OFF ratio, guanine; higher = stronger switching; co-transcriptional cleavage with and without guanine

| CHANGES | aptazyme ON/OFF ratio |
| --- | --- |
| U7G G9A U10C U11A C12G C13U | 1.12 |
| U7C U8C G9U U11A C12U | 1.25 |
| U8A G9C U10G U11C | 1.05 |
| U7G U8C U10C U11C C12U C13G | 1.12 |
| U7C U8G | 1.35 |
| U7C U8A U10C C12G C13U | 1.31 |
| U7C U8A G9U U10C U11C C12G C13A | 1.09 |
| U7A U8C G9U U10A U11C C12G | 1.27 |
| U8C G9C U10C C12U C13A | 1.02 |
| U7C U8G U10G U11G C12G C13A | 1.17 |
| U8C G9C C12U C13U | 1.13 |
| U8C G9U U10C U11C C12U C13G | 1.05 |
| U7C U8C G9C U10C U11G | 1.3 |
| U7A U8G G9A C12G | 1.79 |
| U7A U8C G9U U11A C12G C13G | 1.22 |
| U8A U10C U11A | 1.15 |
| U8G G9C U10A U11A C12U | 1.18 |
| G9U U10A U11C C13A | 1.53 |
| U7A U8A G9C U10C C12A | 1.03 |
| U7G G9U U10G U11G C12A C13A | 1.11 |
| U7C U8C G9A U10A U11G C12G C13A | 1.13 |
| U7G U8G G9A U11A C12U C13A | 1.15 |
| U7C U8A G9C C13G | 1.04 |
| U7C U8A U11G C12G | 1.19 |
| U7A U8C U10G C12U C13U | 1.34 |
| U7C U8G G9A U10C C12G C13G | 1.12 |
| U7C U8A G9U U10C U11C C12G | 1.03 |
| U8C G9U U10C U11C C12A C13G | 1.62 |
| U7G G9A U10C U11A C12G C13G | 1.07 |
| U7A U8A G9A U10G U11C C12A | 1.26 |
| U7G G9C U10A U11C C12U | 1.46 |
| G9A U11C C12G C13G | 1.15 |
| U7A U8G G9U U10A U11A C12G C13G | 1.28 |
| U7C U8G G9C U10C C12A | 1.07 |
| U8C U10G U11G C12A C13G | 1.09 |
| U7A U8A G9U U10A U11G C12G C13G | 1.23 |
| U7G G9A C13G | 1.11 |
| U7G G9C U10A C12G C13A | 1.1 |
| U7C U11C | 1.16 |
| U7G U8G G9A U11G C12G C13A | 1.12 |
| U8G G9U U10A U11C C12G C13G | 1.11 |
| U7C U8A G9U U10G U11C C12A C13A | 1.18 |
| U7C G9C U11A C12G | 1 |
| U7A G9C U11A C12U | 1.09 |
| U7A U8C G9A U10C U11A C13G | 1.17 |
| U7C U8C G9C U10A U11G C12U C13G | 1.08 |
